- ASSAY NAME: Stability in different conditions, content by HPLC
- Format: physicochemical
- CONDITION CONTEXT: HPLC; initial purity 99.6%
This section presents compounds with their documented content after 6 Months at 60° C. values.
QUANTITY KIND: content after 6 Months at 60° C. (%)

# COMPOUND, QUANTITY KIND, RECORDED RESULT
measured = [
    ("Cl.N#CC1(c2ccc(NC(=O)c3cccnc3NCc3ccncc3)cc2)CCCC1 [Hydrochloride of compound A]", "content after 6 Months at 60° C.", 94.7),
    ("N#CC1(c2ccc(NC(=O)c3cccnc3NCc3ccncc3)cc2)CCCC1.O=C(O)/C=C\\C(=O)O [Maleate of compound A]", "content after 6 Months at 60° C.", 93.5),
    ("N#CC1(c2ccc(NC(=O)c3cccnc3NCc3ccncc3)cc2)CCCC1.O=C(O)CCC(=O)O [Succinate of compound A]", "content after 6 Months at 60° C.", 93.8),
]
